Task for the reader: assign each of the following variants its reported protein stability index.
B1: ATE1 (parent)
chain: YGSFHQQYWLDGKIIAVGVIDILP

Variants of: B1
Assay text: protein stability index of a GFP-peptide fusion (GPS, HEK-293T) (PSI 1-6); higher = more stable;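 further: lentivirally expressed fusions sorted by FACS into six bins by GFP to DsRed ratio, PSI derived from sequencing read proportions per bin multiplied by bin number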
Test parameters: c terminus: a fixed tail appended
Response field accepts a number only; no unit should be typed.

Query P24S yields protein stability index of 1.79

Query F4I yields protein stability index of 2.92

Query A16P yields protein stability index of 2.38

Query Q6W yields protein stability index of 1.19

Query G12V yields protein stability index of 2.04

Query L10E yields protein stability index of 2.75

Query P24K yields protein stability index of 1.04

Query I14C yields protein stability index of 2.81

Query Q6G yields protein stability index of 2.41

Query Y1F yields protein stability index of 3.22

Query P24V yields protein stability index of 3.01

Query V17F yields protein stability index of 4.21

Query W9P yields protein stability index of 3.09

Query L23I yields protein stability index of 2.34

Query K13L yields protein stability index of 3.1

Query A16C yields protein stability index of 1.6

Query K13I yields protein stability index of 1.1

Query Q7L yields protein stability index of 2.01

Query D11K yields protein stability index of 3.39

Query I14S yields protein stability index of 1.85

Query D11V yields protein stability index of 2.38

Query G2I yields protein stability index of 3.05

Query V19A yields protein stability index of 2.67

Query I22P yields protein stability index of 3.32

Query D11I yields protein stability index of 2.1

Query G18W yields protein stability index of 2.81

Query K13C yields protein stability index of 2.44

Query I14E yields protein stability index of 2.66

Query L23E yields protein stability index of 1.4

Query V19W yields protein stability index of 2.06

Query Y1L yields protein stability index of 1.73
